FYI, the data here is from patent US5447954A.

Target: rat ATP citrate lyase (Rattus norvegicus, UniProt P16638)
Construct: prior to removal of the livers; ATP Citrate lyase was prepared according to the method of Wraight et al
Sequence (P16638 1-1100): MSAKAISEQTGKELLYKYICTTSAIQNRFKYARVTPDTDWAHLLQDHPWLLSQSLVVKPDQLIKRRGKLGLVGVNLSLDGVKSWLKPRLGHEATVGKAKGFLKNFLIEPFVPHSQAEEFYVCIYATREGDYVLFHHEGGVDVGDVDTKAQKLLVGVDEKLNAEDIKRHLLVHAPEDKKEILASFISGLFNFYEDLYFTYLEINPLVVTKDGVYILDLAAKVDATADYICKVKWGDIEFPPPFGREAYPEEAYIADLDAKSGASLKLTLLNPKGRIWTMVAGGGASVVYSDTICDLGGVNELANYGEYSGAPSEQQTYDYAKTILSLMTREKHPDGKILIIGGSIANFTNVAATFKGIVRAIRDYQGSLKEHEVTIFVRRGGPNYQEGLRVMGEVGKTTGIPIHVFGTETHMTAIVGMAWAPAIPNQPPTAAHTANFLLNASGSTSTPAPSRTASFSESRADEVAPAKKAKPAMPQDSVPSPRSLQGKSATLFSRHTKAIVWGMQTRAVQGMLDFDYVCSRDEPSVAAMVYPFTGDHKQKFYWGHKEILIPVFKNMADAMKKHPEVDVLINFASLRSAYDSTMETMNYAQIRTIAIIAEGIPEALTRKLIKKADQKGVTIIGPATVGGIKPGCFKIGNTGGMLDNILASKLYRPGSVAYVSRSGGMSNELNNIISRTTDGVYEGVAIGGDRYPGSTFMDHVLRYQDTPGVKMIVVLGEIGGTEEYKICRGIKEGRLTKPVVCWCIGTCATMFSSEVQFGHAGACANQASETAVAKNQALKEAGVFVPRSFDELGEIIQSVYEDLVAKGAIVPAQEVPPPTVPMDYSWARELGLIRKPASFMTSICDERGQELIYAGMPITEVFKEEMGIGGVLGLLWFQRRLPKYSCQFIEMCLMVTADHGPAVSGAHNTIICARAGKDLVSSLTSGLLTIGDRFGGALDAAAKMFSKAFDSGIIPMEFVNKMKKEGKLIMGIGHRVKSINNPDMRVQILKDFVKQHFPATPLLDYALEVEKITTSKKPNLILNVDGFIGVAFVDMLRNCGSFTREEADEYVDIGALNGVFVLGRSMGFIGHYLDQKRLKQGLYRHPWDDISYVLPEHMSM
Assay: Assay of ATP Citrate lyase in the presence of inhibitors (rat enzyme)
Settings: 100 μM citrate, pH 8.0, 25° C.
pKi: −log10 of the molar value. Where a name gives a salt, the structure may show the parent alone.
observedProperty: pKi

Result for O=C(O)C[C@](O)(C[C@@H](O)CCCCCCc1ccc(Cl)cc1Cl)C(=O)O (single isomer, unassigned) [Example 18, disodium salt] , tested on rat ATP citrate lyase (Rattus norvegicus, UniProt P16638), pKi: 6.15

Reported pKi (rat ATP citrate lyase (Rattus norvegicus, UniProt P16638)) for entry O=C(O)C[C@](O)(C[C@@H](O)CCCCCCc1ccc(Cl)cc1Cl)C(=O)O (single isomer, unassigned) [Example 20, disodium salt] is 6.15

Lab note: molecule O=C(O)C[C@](O)(C[C@@H](O)CCCCCCc1ccc(Cl)cc1Cl)C(=O)O (relative stereo) [Example 1, disodium salt] tested on rat ATP citrate lyase (Rattus norvegicus, UniProt P16638); recorded pKi was 6.10
